Assay: NCI Yeast Anticancer Drug Screen. Data for the rad50 strain (AID 155);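 further: 0% = growth of vehicle-only cultures of the same strain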
Details: S. cerevisiae rad50 strain growth inhibition; at 50.0 µM; stronger effect = higher value
Procedure: Growth inhibition of yeast strains with defined genetic alterations is measured as a screen for potential anti-cancer activity. Selected strains with alterations in DNA damage repair or cell cycle control were exposed to compounds and growth inhibition was measured relative to vehicle treated controls. The strain used in this assay is rad50
Compounds without any hit were thinned out: in the full panel of roughly 79,000, 15% have a hit.
reported endpoint: growth inhibition (%)

compound: COc1ccc2c(c1)CC/C(=C\c1ccccn1)C2=O
reported endpoint: growth inhibition
recorded number: 41.5
//
compound: COc1ccc(C(=O)/C=C/c2ccc(OCC(=N)N)cc2)cc1
reported endpoint: growth inhibition
recorded number: -31.1
//
compound: O=C(NCC1(O)CCCCC1)c1ccccc1
reported endpoint: growth inhibition
recorded number: 3.65
//
compound: Cc1c(F)c(F)c(-c2c(F)c(F)c(C)c(F)c2F)c(F)c1F
reported endpoint: growth inhibition
recorded number: 5
//
compound: CC(C)(C)OC(=O)N/N=C(/N)Cc1ccccc1
reported endpoint: growth inhibition
recorded number: -36.2
//
compound: Cc1cc(C)cc(N=Nc2c(N)nc(N)[nH]c2=O)c1
reported endpoint: growth inhibition
recorded number: 4.85
//
compound: O=C1/C(=C/c2ccc(C(=O)O)cc2)CNC/C1=C\c1ccc(C(=O)O)cc1
reported endpoint: growth inhibition
recorded number: -7.4
//
compound: Cc1cc(C#N)c[n+](C)c1
reported endpoint: growth inhibition
recorded number: -7.25
//
compound: CN1C(=O)C2C(C1=O)[C@H]1c3ccccc3C=CN1[C@@H]2C(=O)c1ccccc1 (some centres not stated)
reported endpoint: growth inhibition
recorded number: 13.2
//
compound: CCCCCCC(=O)C/C(CCC(=O)N(Cc1ccccc1)Cc1ccccc1)=N\NC(N)=O
reported endpoint: growth inhibition
recorded number: -6.65
//
compound: CCOC(=O)NC(=O)c1cn(C2OC(CO)C(O)C2O)c(=O)[nH]c1=O (configuration not stated)
reported endpoint: growth inhibition
recorded number: 10.3
//
compound: COc1ccc(Nc2ccnc(N)n2)cc1
reported endpoint: growth inhibition
recorded number: 5.15
//
compound: COc1cc(Br)c(C=Nc2cccc3cc(OC)c(OC)cc23)cc1OC
reported endpoint: growth inhibition
recorded number: -0.9
//
compound: O=[N+]([O-])c1ccc2c(Cl)[nH]nc2c1
reported endpoint: growth inhibition
recorded number: 35.1
//
compound: COc1cccc(C2c3cc4c(cc3OC(C)(N3CCCC3)C2C)OCO4)c1OC (configuration not stated)
reported endpoint: growth inhibition
recorded number: -4
//
compound: COc1cc2c(cc1OC)C(C(CO)CO)N(CC(O)CCl)CC2 (configuration not stated)
reported endpoint: growth inhibition
recorded number: -25.6
//
compound: O=C(N=Nc1c(O)[nH]c2ccccc12)c1ccncc1
reported endpoint: growth inhibition
recorded number: -10.8
//
compound: C[C@@H](C1CC[C@H]2[C@@H]3[C@@H]4O[C@@H]4[C@@]4(O)CC=CC(=O)[C@]4(C)[C@H]3C[C@H](O)[C@]12C)[C@H]1C[C@]2(C)O[C@]2(C)C(=O)O1 (some centres not stated)
reported endpoint: growth inhibition
recorded number: 1.35
//
compound: CC(=O)c1cccc(NC(=O)c2c(Br)c(Br)c(Br)c(Br)c2C(=O)O)c1
reported endpoint: growth inhibition
recorded number: -7.25
//
compound: O=C1NC(=O)C(=C/C=C/C=C\C2C(=O)NC(=O)NC2=O)C(=O)N1
reported endpoint: growth inhibition
recorded number: -15.1
//
compound: C=CCOC(=O)NC(Cc1ccc(O)cc1)C(=O)O (configuration not stated)
reported endpoint: growth inhibition
recorded number: -0.05
//
compound: CC(=O)Nc1cc([N+](=O)[O-])c2[nH]c(=O)c3ccccc3c2c1
reported endpoint: growth inhibition
recorded number: -7.7
